The measured values listed here are drawn from patent US20060058268A1.

- System: cells
- Format: cell-based
- Design: unit not given beside the values
assay readout: LD50
I only need the number, thanks.

>>> print(df.to_string())
                                   compound  assay_readout  test_result
0  CC(C)(C)c1cc(SCc2ccc(C(=O)O)o2)cc(C(C)(C)C)c1O           LD50          400
1  CC(=O)Oc1ccc(CSc2cc(C(C)(C)C)c(O)c(C(C)(C)C)c2)cc1           LD50           75
2  CCCCC(OC(C)=O)Sc1cc(C(C)(C)C)c(O)c(C(C)(C)C)c1 (stereo not shown)           LD50          100
3   CC(C)(C)c1cc(SCCCC(=O)O)cc(C(C)(C)C)c1O           LD50          200
4  CC(C)(C)c1cc(SCc2cccc([N+](=O)[O-])c2)cc(C(C)(C)C)c1O           LD50          200

Dear colleague, please send me the reported LD50 for CC(C)(C)c1cc(SCCc2ccc([N+](=O)[O-])cc2)cc(C(C)(C)C)c1O when you can.
0.4

Dear colleague, please send me the reported LD50 for CN(C)S(=O)(=O)c1ccc(CSc2cc(C(C)(C)C)c(O)c(C(C)(C)C)c2)cc1 when you can.
350

Dear colleague, please send me the reported LD50 for CC(C)(C)c1cc(SCc2ccc([N+](=O)[O-])cc2)cc(C(C)(C)C)c1O when you can.
200

Dear colleague, please send me the reported LD50 for CC(C)(C)c1cc(S(=O)(=O)Cc2ccc([N+](=O)[O-])cc2)cc(C(C)(C)C)c1O when you can.
100

Dear colleague, please send me the reported LD50 for CN(C)CCCSc1cc(C(C)(C)C)c(O)c(C(C)(C)C)c1 when you can.
100

Dear colleague, please send me the reported LD50 for CC(C)(C)c1cc(SCc2ccc(CC(=O)O)cc2)cc(C(C)(C)C)c1O when you can.
200

Dear colleague, please send me the reported LD50 for CC(C)(C)c1cc(SCc2ccc([N+](=O)[O-])cc2[N+](=O)[O-])cc(C(C)(C)C)c1O when you can.
400

Dear colleague, please send me the reported LD50 for CC(C)(C)c1cc(SCc2ccc(C(F)(F)F)cc2)cc(C(C)(C)C)c1O when you can.
300

Dear colleague, please send me the reported LD50 for CC(C)(C)c1cc(SCc2ccc(CCO)cc2)cc(C(C)(C)C)c1O when you can.
50

###

- Test system: VCAM-1
- test protocol: VCAM-1 assay with ELISA readout (Examples 5-6)
- Format: cell-based
- particulars: TNF added with compound, incubated overnight (approximately 16 hours)
Reported pIC50 values for a set of molecules
Hey, just a heads up that pIC50 is the negative log base 10 of the concentration in molar.

Guide cases for pIC50, answers given:
                                   molecule  assay_readout  test_result
0  Cc1ccc(CSc2cc(C(C)(C)C)c(O)c(C(C)(C)C)c2)cc1          pIC50         4.12
1  CN(C)S(=O)(=O)c1ccc(CSc2cc(C(C)(C)C)c(O)c(C(C)(C)C)c2)cc1          pIC50         4.70

Dear colleague, please send me the reported pIC50 for CC(C)(C)c1cc(SCc2ccc(C(=O)O)o2)cc(C(C)(C)C)c1O when you can.
4.40

Dear colleague, please send me the reported pIC50 for CC(C)(C)c1cc(SCc2cccc([N+](=O)[O-])c2)cc(C(C)(C)C)c1O when you can.
4.89

Dear colleague, please send me the reported pIC50 for CC(C)(C)c1cc(SCc2ccc(CCO)cc2)cc(C(C)(C)C)c1O when you can.
4.82

Dear colleague, please send me the reported pIC50 for CC(C)(C)c1cc(SCc2ccc(C(F)(F)F)cc2)cc(C(C)(C)C)c1O when you can.
5.30

Dear colleague, please send me the reported pIC50 for CC(C)(C)c1cc(SCc2ccc([N+](=O)[O-])cc2[N+](=O)[O-])cc(C(C)(C)C)c1O when you can.
5.10

Dear colleague, please send me the reported pIC50 for CC(C)(Sc1cc(C(C)(C)C)c(O)c(C(C)(C)C)c1)Sc1cc(C(C)(C)C)c(OC(=O)CCC(=O)O)c(C(C)(C)C)c1 when you can.
5.25

Dear colleague, please send me the reported pIC50 for CC(C)(C)c1cc(S(=O)(=O)Cc2ccc([N+](=O)[O-])cc2)cc(C(C)(C)C)c1O when you can.
4.40

Dear colleague, please send me the reported pIC50 for CC(C)(C)c1cc(SCCCC(=O)O)cc(C(C)(C)C)c1O when you can.
4.12

Dear colleague, please send me the reported pIC50 for CC(C)(C)c1cc(SCc2ccc(F)cc2)cc(C(C)(C)C)c1O when you can.
4.46

Dear colleague, please send me the reported pIC50 for CC(C)(Sc1cc(C(C)(C)C)c(O)c(C(C)(C)C)c1)Sc1cc(C(C)(C)C)c(OCC(O)C2CO2)c(C(C)(C)C)c1 (stereo not drawn) when you can.
4.35

Dear colleague, please send me the reported pIC50 for CC(=O)Oc1ccc(CSc2cc(C(C)(C)C)c(O)c(C(C)(C)C)c2)cc1 when you can.
4.74

Dear colleague, please send me the reported pIC50 for CN(C)Cc1ccc(CSc2cc(C(C)(C)C)c(O)c(C(C)(C)C)c2)o1 when you can.
5.00

Dear colleague, please send me the reported pIC50 for CC1(C)OC2OC(COc3c(C(C)(C)C)cc(SC(C)(C)Sc4cc(C(C)(C)C)c(O)c(C(C)(C)C)c4)cc3C(C)(C)C)C3OC(C)(C)OC3C2O1 (stereo not drawn) when you can.
4.35
